From: PubChem BioAssay (NCI)

Test system: BT-549 breast
Test Name: NCI tumour cell line growth inhibition, 48 h
Metric: GI50

Value of measured GI50 for the entry CCN1C(=O)/C(=c2\sc3n(c2=O)C2C(NN=3)N(CC)C(=O)N2CC)c2ccccc21 (configuration not stated) : 1370 nM

Value of measured GI50 for the entry COc1ccc(-c2cc(=O)c3c(OC)c4ccoc4c(/C=C/C=O)c3o2)cc1 : 2140 nM

Value of measured GI50 for the entry COc1cccc2nc(Nc3cccc(NC(=O)c4ccc(N5CCN(C)CC5)c(C(F)(F)F)c4)c3)ccc12 : 2790 nM

Value of measured GI50 for the entry CO/N=C(/C)COc1ccc2c(c1)oc(=O)c1cc(OC)ccc12 : > 100000 nM

Value of measured GI50 for the entry CC[C@]12C=CCN3CC[C@@]4(c5ccc(OC)cc5N(C)[C@H]4[C@@](O)(C(=O)OC)[C@@H]1OC(=O)CCC(=O)O[C@H]1CC[C@H]4[C@@H]5CCC6=CC(=O)CC[C@@H]6[C@H]5CC[C@]14C)[C@@H]32 : 1620 nM

Value of measured GI50 for the entry O=C1/C(=C/c2ccc(Cl)cc2)CN(Cc2cn(CCCNc3ccnc4cc(Cl)ccc34)nn2)C/C1=C\c1ccc(Cl)cc1 : 1640 nM

Value of measured GI50 for the entry CCCCCCCCCN=C(N)c1ccc(N2CCN(c3ccc(C(N)=NCCCCCCCCC)cc3)CC2)cc1 : 1130 nM

* * *

System: PC-3 prostate
Test Name: NCI tumour cell line growth inhibition, 48 h
Metric: TGI (µM)
// note: answer is a bare numeric in µM

Value of measured TGI for the entry CC(C)C[C@H](NC(=O)[C@@H](Cc1ccccc1)n1ccc(Nc2ccccc2)cc1=O)B(O)O : 19.6

Value of measured TGI for the entry Cn1cc(-c2csc(-c3ccccc3)n2)c2cccnc21 : 39.1

Value of measured TGI for the entry COC(=O)C1c2cc3c(c(O)c2CCC1(C)O)C(=O)c1c(O)cc2c(c1C3=O)OC1OC2(C)C(O)C(N(C)C)C1O (centres undefined) : 1.79

Value of measured TGI for the entry COc1ccc2nc3cc([N+](=O)[O-])ccc3c(NCCO)c2c1 : 30

Value of measured TGI for the entry NC(=O)C1=C(O)[C@@]2(O)C(=O)C3=C(O)c4c(O)cccc4CC3C[C@H]2CC1=O (some centres undefined) : 9.71

Value of measured TGI for the entry COc1cc2cc(C(=O)N3CC(CCl)c4ccc(NO)cc43)[nH]c2c(OC)c1OC (centres undefined) : 2.05

Value of measured TGI for the entry O=C1c2ccccc2C(=O)c2c1oc1cc(O)c(Cl)cc21 : 29.6

Value of measured TGI for the entry CC1=CC2(C)C=C[C@@H]1C(=O)[C@@]1(C)CC[C@@](O)(C(C)C)[C@H]1CC2 : 51.9

* * *

System: SF-295 CNS
Test Name: NCI tumour cell line growth inhibition, 48 h
Where a SMILES comes first, the peptide text is derived from it. [ ]: non-standard residue; d: D form. The star is where a group is joined. ξ: configuration not given here. NMeY = CN[C@@H](Cc1ccc(O)cc1)C(=O)O; Cbz = O=C(OCc1ccccc1)*; ξA = CC(N)C(=O)O
Hi there, I'd appreciate the recorded TGI for every entry that follows.

Bench note, SF-295 CNS: entry COc1ccc(-c2cc(=O)c3c(OC)c4ccoc4c(/C=C/C=O)c3o2)cc1 , its TGI = 26.5 µM

Bench note, SF-295 CNS: entry CC1(C=O)CC(CCc2ccccc2)NC1Cc1ccc(O)cc1 (centres undefined) , its TGI = 33.8 µM

Bench note, SF-295 CNS: entry COc1ccc(C[C@@H](C(=O)N[C@@H](C)C(N)=O)N(C)C(=O)[C@@H]2CCCN2C(=O)[C@H](CC(C)C)NC(=O)C(C)NC(=O)OCc2ccccc2)cc1 (some centres undefined) (Cbz-[ξA]LP[NMeY](Me)A-NH2) , its TGI = > 100 µM

Bench note, SF-295 CNS: entry COc1ccccc1/C=C1\CCC(Cc2ccccc2)(CN(C)C)C1=O (centres undefined) , its TGI = > 63.1 µM

Bench note, SF-295 CNS: entry NC1=NC(c2ccc(Cl)cc2)=CC(c2cccc(Cl)c2)S1 (centres undefined) , its TGI = > 100 µM

Bench note, SF-295 CNS: entry CC(C)[C@@]12C[C@@H](OC(=O)COC(=O)c3ccccc3)[C@@](C)(O1)[C@@H]1CC[C@@H](C)[C@H]1[C@@H]2OC(=O)/C=C/c1ccccc1 , its TGI = > 100 µM

Bench note, SF-295 CNS: entry Nc1ncnc2c1ccn2CC#CCO , its TGI = > 100 µM

Bench note, SF-295 CNS: entry COc1ccc(-c2nc3sccn3c2-c2ccnc(NCCNS(=O)(=O)c3ccc(C(F)(F)F)cc3)n2)cc1 , its TGI = 5.58 µM

Bench note, SF-295 CNS: entry COc1ccc(/C(C)=C2\CCCN(Cc3ccccc3)C2)cc1 , its TGI = 35.1 µM

* * *

System: OVCAR-3 ovarian
Test Name: NCI tumour cell line growth inhibition, 48 h
Where a SMILES comes first, the peptide text is derived from it. [ ]: non-standard residue; d: D form. The star is where a group is joined. ξ: configuration not given here. NMeY = CN[C@@H](Cc1ccc(O)cc1)C(=O)O; Cbz = O=C(OCc1ccccc1)*; ξA = CC(N)C(=O)O
Metric: TGI

Value of measured TGI for the entry O=C1CSC(c2ccccc2)N1c1ccc(-c2ccc(-n3c(-c4ccccc4)nc4ccccc4c3=O)cc2)cc1 (stereo not given) : > 100 µM

Value of measured TGI for the entry O=C1CCc2cc(Br)ccc2O1 : > 100 µM

Value of measured TGI for the entry CCCCC/C=C\C=C\CCCCCCCCC(=O)OC : > 100 µM

Value of measured TGI for the entry COc1ccc(S(=O)(=O)N/N=C(\C)CN2C(=O)c3ccccc3C2=O)cc1OC : > 100 µM

Value of measured TGI for the entry Cc1cc(C)c(NS(=O)c2ccc(Cl)cc2)c(C)c1 (stereo not given) : > 100 µM

Value of measured TGI for the entry [O-]c1c2c(nn1-c1ccc(F)cc1)c1ccccc1c[n+]2Cc1ccccc1 : 22.1 µM

Value of measured TGI for the entry CN1C(=O)C(=Cc2ccc(Br)cc2)C(=O)N(C)C1=O : > 100 µM

Value of measured TGI for the entry CC(C)CC(N)C(=O)NC(CNC(CCC(N)=O)C(=O)NC(CC(C)C)C(=O)NC(CC(C)C)C(=O)O)Cc1ccc2ccccc2c1 (stereo not given) : > 10 µM

Value of measured TGI for the entry CO[P@@]1(=O)O[C@@H](c2ccccc2)[C@H](O)[C@@]1(O)c1ccccc1 : > 100 µM

Value of measured TGI for the entry Cc1nc2ccc(-n3ncc(C(=O)c4cc5ccccc5[nH]4)c3N)cc2[nH]1 : > 100 µM

Value of measured TGI for the entry CCCCCCCCCN=C(N)c1ccc(N2CCN(c3ccc(C(N)=NCCCCCCCCC)cc3)CC2)cc1 : 3.83 µM

Value of measured TGI for the entry O=C(O)C12C3CCC(C3)C1(C(=O)O)C1CCC2C1 (stereo not given) : > 100 µM

Value of measured TGI for the entry O=c1[nH][nH]c(=O)n1Cc1ccccc1 : > 100 µM

Value of measured TGI for the entry COc1ccccc1N1CCN(S(=O)(=O)c2ccc(Cl)cc2)C1=N : > 100 µM

Value of measured TGI for the entry CN1N=C(c2ccncc2)OC1c1cccc(F)c1 (stereo not given) : > 100 µM

Value of measured TGI for the entry Nc1c(S(=O)(=O)O)cc(S(=O)(=O)O)c2ccc(N=Nc3ccccc3)c(O)c12 : > 100 µM

Value of measured TGI for the entry COc1ccc(C[C@@H](C(=O)N[C@@H](C)C(N)=O)N(C)C(=O)[C@@H]2CCCN2C(=O)[C@H](CC(C)C)NC(=O)C(C)NC(=O)OCc2ccccc2)cc1 (stereo not given in full) (Cbz-[ξA]LP[NMeY](Me)A-NH2) : > 100 µM

Value of measured TGI for the entry OC1CC(O)O[C@H](c2ccccc2)C1 (stereo not given in full) : > 100 µM

Value of measured TGI for the entry Cc1ccc(NC(=O)c2cccc(OP(=O)(Nc3ccc(C)cc3)Nc3ccc(C)cc3)c2)cc1 : > 100 µM

Value of measured TGI for the entry CCOC(=O)C1=C(C)NC2SC(=O)/C(=C\c3cccc(Cl)c3)N2C1c1ccccc1 (stereo not given) : > 100 µM

* * *

Test system: OVCAR-8 ovarian
Test Name: NCI tumour cell line growth inhibition, 48 h
Metric: GI50

Value of measured GI50 for the entry COc1ccc(-c2cc(=O)c3c(OC)c4ccoc4c(/C=C/C=O)c3o2)cc1 : 2.83 µM

Value of measured GI50 for the entry COC(=O)C1C(C(=O)O)C2(c3ccccc3)C(=O)C1(c1ccccc1)C(c1ccc(OC)cc1)=C2c1ccc(OC)cc1 (stereo not drawn) : 15.9 µM

Value of measured GI50 for the entry COc1cccc2nc(Nc3cccc(NC(=O)c4ccc(N5CCN(C)CC5)c(C(F)(F)F)c4)c3)ccc12 : 1.69 µM

Value of measured GI50 for the entry CCCCCCCCCN=C(N)c1ccc(N2CCN(c3ccc(C(N)=NCCCCCCCCC)cc3)CC2)cc1 : 1.62 µM

Value of measured GI50 for the entry c1cc[n+](Cc2c3ccccc3cc3c2ccc2ccccc23)cc1 : 3.49 µM

Value of measured GI50 for the entry CCCCCOC(=O)Nc1nc(=O)n(C2OC(C)C(O)C2O)cc1F (stereo not drawn) : > 10000 µM

Value of measured GI50 for the entry CC(=O)[O-].CC(=O)[O-].O=C([CH-]C(=O)c1ccccc1)c1ccccc1.[Nd+3].[OH3+] : 15.8 µM

Value of measured GI50 for the entry COC(=O)CN1Cc2cc(C)cc(c2O)CN(CC(=O)OC)Cc2cc(C)cc(c2O)CN(CC(=O)OC)Cc2cc(C)cc(c2O)CN(CC(=O)OC)Cc2cc(C)cc(c2O)C1 : 18.7 µM
